Let's look at some variants and their measured folding stability dG.
B1: EEHEE_rd3_1049 (parent)
chain: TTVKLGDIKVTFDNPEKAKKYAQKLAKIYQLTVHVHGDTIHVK

# Variants of: B1
# Test summary: folding stability dG (cDNA display proteolysis); higher = more stable
# Condition set: PBS, room temperature
Output spec: scalar in kcal/mol, unitless text.

Worked cases, folding stability dG given:
{"Variant label": "H34N", "Observed result": 1.34}
{"Variant label": "E16A", "Observed result": 1.94}
{"Variant label": "T2F", "Observed result": 1.67}

Short answer for `G6K` : folding stability dG was 1.41

Short answer for `N14E` : folding stability dG was 1.4

Short answer for `H41N` : folding stability dG was 1.32

Short answer for `K17C` : folding stability dG was 3.1

Short answer for `Y21T` : folding stability dG was 0.282

Short answer for `V35L` : folding stability dG was 1.7

Short answer for `D13H` : folding stability dG was 1.86

Short answer for `I28D` : folding stability dG was 1.08
